# PROTOCOL_NOTES: NCI Yeast Anticancer Drug Screen. Data for the mlh1 rad18 strain (AID 175)
# CONDITION_SET: S. cerevisiae mlh1 rad18 strain growth inhibition, stronger effect = higher value; at 50.0 µM unless noted
Compounds without any hit were thinned out: in the full panel of roughly 79,000, 15% have a hit.
Hi there, I'd appreciate the recorded growth inhibition for every entry that follows.
Numbers only, in %.

In the examples that follow, each entry is paired with its recorded growth inhibition.
# COMPOUND, VALUE_REPORTED
data = [
    ("CCC(C)(CC)c1ccc(C)cc1OC", 6.9),
    ("NC(=O)c1ccc(F)cc1", -10.5),
    ("CCCCCCCC/C=C\\CCCCCCCC(=O)NN", -12.8),
    ("Nc1nc(N)c(N=O)c(Nc2ccccc2)n1", 43.4),
    ("N#C/C(=C\\C1CCCCC1Cl)C1CCC([N+](=O)[O-])CC1 (stereo not given)", 18.1),
]

Lab note: each compound below needs its growth inhibition filled in.
1. CCC(C)C(NC(=O)Cc1ccccc1)C(=O)O (stereo not given)
2. Cc1cccc(C)c1NC(=S)N/C=C(\C#N)C(N)=O
3. Oc1ccc(C(O)CN2CCCC2)cc1O (stereo not given)
4. O=C1/C(=C\C=C\c2ccccc2)CCCC/C1=C\C=C\c1ccccc1
5. Cc1cc(Cl)ccc1NC(=O)Oc1ccc(C#N)cc1
6. Cc1ccccc1NC(=O)C(=O)CC(=O)c1sc(-n2nc(-c3ccccc3)cc2-c2ccccc2)nc1C
7. CCN(CC)c1ccc(C(c2ccc(N(CC)CC)cc2Cl)c2cccc3ccccc23)c(Cl)c1
8. CCOc1ccc(NC(=O)C(=O)CC(=O)c2c(C)n([O-])c3ccccc3[n+]2=O)cc1

Given back:
1: 5.75; 2: -49.4; 3: -15.3; 4: 8.35; 5: -19.4; 6: -17.8; 7: 7.85; 8: -10.8

###

Hi there, I'd appreciate the recorded growth inhibition for every entry that follows.
# PROTOCOL_NOTES: NCI Yeast Anticancer Drug Screen. Data for the bub3 strain (AID 167)
# CONDITION_SET: S. cerevisiae bub3 mutant strain, stronger effect = higher value; at 50.0 µM unless noted
This is part of a sample that, as a whole, favours compounds with a hit. Of some 79,000 tested, about 15% had one in any assay.
One number for each entry, in %.

In the examples that follow, each entry is paired with its recorded growth inhibition.
# COMPOUND, growth inhibition [%]
data = [
    ("COC1=C2CC(C)CC(OC)C(O)C(C)/C=C(\\C)C(OC(N)=O)C(OC)/C=C\\C=C(/C)C(=O)NC(=C(/C=N/N3CCCCC3)C1=O)C2=O (configuration not stated)", -12.8),
    ("Cn1ccnc1Sc1c([N+](=O)[O-])ncn1C", 32.5),
    ("O/N=C1\\c2ccccc2-c2cccc(Br)c21", -9.6),
    ("O=C(C1=CCCCC1)c1ccc(-c2ccccc2)cc1", -6.15),
    ("CC(C)=C1C2CCC1C(CO)C2CO (configuration not stated)", -2.4),
    ("CC(C)(C)NSc1nc2ccccc2s1", -2.5),
    ("O=C(O)c1c(O)cc(=O)oc1-c1ccc(Cl)cc1", 10.4),
    ("COC(=O)[C@H](Cc1c[nH]c2ccccc12)NC(=O)OCC1OC(n2cc(C)c(=O)[nH]c2=O)CC1N=[N+]=[N-] (some centres not stated)", -13.6),
]

Lab note: each compound below needs its growth inhibition filled in.
1. C=CCOCC(O)CNCC(O)COCC=C (configuration not stated)
2. Cc1cc(C)c(S)c(C)c1.[Cu+2]
3. Cc1cccc(NC(=O)C(=O)C(C(=O)c2ccc3ccccc3c2)C2OC(=O)c3ccccc32)c1C (configuration not stated)
4. CC1=C(C(=O)Nc2cc(=O)n(C)c(=O)n2C)C(c2ccco2)C(C(=O)Nc2cc(=O)n(C)c(=O)n2C)=C(C)N1
5. O=S(=O)(O)c1cc(O)c(S(=O)(=O)O)cc1O
6. CC(=O)[C@@]1(O)CC[C@H]2[C@@H]3CC[C@@H]4C[C@H](O)CC[C@]4(C)[C@H]3[C@H](O)C[C@@]21C
7. CC(=O)Nc1ccccc1C(C#N)Cc1ccccc1 (configuration not stated)
8. C=C(C)C1CCC2(C)CCC(=O)C(C)=C2C1 (configuration not stated)

Given back:
1: -31.2; 2: -28.9; 3: 5.75; 4: -4.6; 5: 1.4; 6: 11.3; 7: 1.15; 8: -6.1

Asked: Give growth inhibition for "O=S1(=O)OCCOS(=O)(=O)C1(Br)Cc1ccccc1"
Given back: -63.8

Source of measurements: PubChem BioAssay (NCI)
